# System: MRSA
# Procedure Details: Kill or inhibit growth/proliferation; morphology, biofilm and growth disruption (Tables 5, 6); note: test concentration or dose not given here
# Assay type: cell-based, Methicillin-resistant Staphylococcus aureus
# Set-up: key: A: Peptide aggregates; B: Less hyphal formation; Clumps; Diffuse clumps and small polyps; F: Diffuse growth; H: Thin; I: Growth inhibition; Microcolony formation; Rippled; Small polyps; Thick; W: Halo formation on top, microlonies on bottom
Ends that are not written are not given here.
Result Type: Organism, effect

Known results for substances:
>>> result("VLPFPAIPLSRRRACVAAPRPRSRQRAS [PF-168]")
"MRSA (I)"
>>> result("PF-566: peptide having multiple activities (chain 1 EAQQVTQQLGADFNAITTPTATKV; chain 2 EAQQVTQQLGADFNAITTPTATKV; Peptide with targeting and/or antimicrobial activity)")
"MRSA (M)"
>>> result("PF-577: peptide having multiple activities (chain 1 PFETRESFRVPVIGILGGWDYFMHP; chain 2 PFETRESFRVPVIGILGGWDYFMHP; Peptide with targeting and/or antimicrobial activity)")
"MRSA (M)"
>>> result("PF-004: peptide having multiple activities (chain 1 ARLSKAIIIAVIVVYHLDVRGLF; chain 2 ARLSKAIIIAVIVVYHLDVRGLF; Peptide with targeting and/or antimicrobial activity)")
"MRSA (R)"
>>> result("PF-532 (KFIYKYKLSFIIYKILIQTLTMELNK; Peptide with targeting and/or antimicrobial activity)")
"MRSA (C)"
>>> result("EILNNNQVIKELTMKYKTQFESNLGGWTARARR [PF-580]")
"MRSA (M)"
>>> result("PF-386: peptide having multiple activities (chain 1 FTLTLITTIVAILNYKDKKK; chain 2 FTLTLITTIVAILNYKDKKK; Peptide with targeting and/or antimicrobial activity)")
"MRSA (C)"
>>> result("PF-003: peptide having multiple activities (chain 1 MNNWIKVAQISVTVINEVIDIMKEKQNGGK; chain 2 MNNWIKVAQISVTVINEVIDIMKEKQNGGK; Peptide with targeting and/or antimicrobial activity)")
"MRSA (R)"

Record for PF-536 (MEPIPHIMIIANQIGIIIEKA; Peptide with targeting and/or antimicrobial activity) under target or system MRSA: Organism, effect reported as MRSA (C)

Measured Organism, effect for this entry RRGCTERLRRMARRNAWDLYAEHFY [PF-148] on MRSA: MRSA (C)

# PF-024: peptide having multiple activities (chain 1 DLRKAK; chain 2 DLRKAK; Peptide with targeting and/or antimicrobial activity) with MRSA: Organism, effect is MRSA (M)

Entry NYAVVSHT [PF-209] under MRSA had Organism, effect of MRSA (I)

// Organism, effect (MRSA) for PF-041: peptide having multiple activities (chain 1 ELLVILPGFI; chain 2 ELLVILPGFI; Peptide with targeting and/or antimicrobial activity) = MRSA (M)

Lab entry: MRSA assay, substance KTPNDKIHKTIIIKHIIL [PF-533] , Organism, effect = MRSA (H)

Item PF-354: peptide having multiple activities (chain 1 FTFSKCRASNGRGFGTLWL; chain 2 FTFSKCRASNGRGFGTLWL; Peptide with targeting and/or antimicrobial activity) ; assay system MRSA; Organism, effect reported as MRSA (H)

Bench note, MRSA: entry PF-407: peptide having multiple activities (KPKNKKEKTVISYEKLLSMY; Peptide with targeting and/or antimicrobial activity) , its Organism, effect = MRSA (C)

MQIFYIKTKIFLSFFLFLLIFSQCFYKIEE [PF-442] tested on MRSA gave Organism, effect: MRSA (M)

Record for PF-519: peptide having multiple activities (chain 1 YLVYSGVLATAAAF-NH2; chain 2 YLVYSGVLATAAAF-NH2) under target or system MRSA: Organism, effect reported as MRSA (C)

###

# System: microorganisms
# Procedure Details: Peptides having multiple activities (targeting/binding, antimicrobial, growth or phenotype altering)
# Text: In certain embodiments, peptides described herein can have multiple activities. Thus for example, a peptide can have both binding/targeting activity and antimicrobial activity. Such peptides can be used, e.g., in a chimeric construct, for any or all of these properties. Thus, for example, a peptide designated “B” in Table 8 can be used as a targeting peptide. If it is also designated G or M it can also be used for antimicrobial activity.
Result Type: Activities

>>> result("PF-756: peptide having multiple activities (DALLRLA; Peptide with targeting and/or antimicrobial activity)")
"G B"
>>> result("PF-741: peptide having multiple activities (AKREDTVAAQIGANILNLIQ; Peptide with targeting and/or antimicrobial activity)")
"G B"
>>> result("PF-452: peptide having multiple activities (chain 1 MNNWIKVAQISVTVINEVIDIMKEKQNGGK; chain 2 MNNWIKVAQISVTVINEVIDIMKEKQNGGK; Peptide with targeting and/or antimicrobial activity)")
"G B"

###

# Tested on: microorganisms (e.g., bacteria, yeasts, fungi)
# Procedure Details: Targeting peptide binding to target microorganisms (Table 3)
# Experimental Setup: microorganism(s) the targeting peptide binds; binding in aqueous buffers depending on peptide solubility, preferably 1x PBS
Result Type: Target(s)

>>> result("PF-314 (ECLKKAIKSKALNKAFKIDVPDEVYDNLLMELEEYEK; Peptide with targeting and/or antimicrobial activity)")
"S. mutans"
>>> result("PF-275 (LVSGVANTVKNTAHTVGNTAKHAGHVAADTTVKATKKQQVK; Peptide with targeting and/or antimicrobial activity)")
"S. mutans"
>>> result("PF-268 (EVLLSDLRPDIFSET; Peptide with targeting and/or antimicrobial activity)")
"S. mutans"

###

# Tested on: microorganisms (e.g., bacteria, yeasts, fungi)
# Procedure Details: Targeting peptide binding to target microorganisms (Table 3)
# Experimental Setup: microorganism the targeting peptide binds; binding in aqueous buffers varied by peptide solubility, preferably 1x PBS
Result Type: Target(s)

>>> result("1T-80 (GGNLGPGFGVIIP; Peptide with targeting and/or antimicrobial activity) [Peptide 1T-80]")
"S. pneumoniae"
>>> result("1T-304 (STAGEASRRTASEASRRTAAKLRG; Peptide with targeting and/or antimicrobial activity) [Peptide 1T-304]")
"P. gingivalis"
>>> result("1T-72 (EPTDGVACKER; Peptide with targeting and/or antimicrobial activity) [Peptide 1T-72]")
"P. aeruginosa"
>>> result("TT-309 (EPLPLTKYDKKDTEMKKVFKEILAGKVGYEKEEE; Peptide with targeting and/or antimicrobial activity)")
"F. nucleatum"

get_value(item= 1T-193 (LMIFDKHANLKYKYGNRSFGVEAIM; Peptide with targeting and/or antimicrobial activity) [Peptide 1T-193] , readout=Target(s)) returns S. sanguinis

###

# System: C. jejuni
# Procedure Details: Kill or inhibit growth/proliferation; morphology, biofilm and growth disruption (Tables 5, 6); note: test concentration or dose not given here
# Type: cell-based, Campylobacter jejuni
# Parameters: key: A: Peptide aggregates; B: Less hyphal formation; Clumps; Diffuse clumps and small polyps; F: Diffuse growth; H: Thin; I: Growth inhibition; Microcolony formation; Rippled; Small polyps; Thick; W: Halo formation on top, microlonies on bottom
Result Type: Organism, effect

>>> result("PF-008: peptide having multiple activities (chain 1 MIEIGSIAYLNGGSKKYNHILNQENR; chain 2 MIEIGSIAYLNGGSKKYNHILNQENR; Peptide with targeting and/or antimicrobial activity)")
"C. jejuni (R)"
>>> result("PF-562: peptide having multiple activities (chain 1 TPEQWLERSTVVVTGLLNRK; chain 2 TPEQWLERSTVVVTGLLNRK; Peptide with targeting and/or antimicrobial activity)")
"C. jejuni (R)"

###

# Test system: microorganisms (e.g., bacteria, yeasts, fungi)
# Procedure Details: Targeting peptide binding to target microorganisms (Table 3)
# Experimental Setup: microorganism(s) the targeting peptide binds; peptide binding conducted in aqueous buffers varied by peptide solubility, preferably 1x PBS
Result Type: Target(s)

>>> result("PF-436 (KKHVLVGKQEKNG; Peptide with targeting and/or antimicrobial activity)")
"C. jeikeium"
>>> result("PF-421: peptide having multiple activities (KHCFEITDKTDVV; Peptide with targeting and/or antimicrobial activity)")
"C. jeikeium"

###

# Tested on: S. pneumoniae
# Procedure Details: Kill or inhibit growth/proliferation; morphology, biofilm and growth disruption (Tables 5, 6); note: test concentration or dose not given here
# Type: cell-based, Streptococcus pneumoniae
# Set-up: key: A: Peptide aggregates; B: Less hyphal formation; Clumps; Diffuse clumps and small polyps; F: Diffuse growth; H: Thin; I: Growth inhibition; Microcolony formation; Rippled; Small polyps; Thick; W: Halo formation on top, microlonies on bottom
Result Type: Organism, effect

>>> result("PF-632: peptide having multiple activities (chain 1 TTIQGVASLEKHGFRYTIIYPTRI; chain 2 TTIQGVASLEKHGFRYTIIYPTRI; Peptide with targeting and/or antimicrobial activity)")
"S. pneumoniae (M)"
>>> result("PF-637: peptide having multiple activities (chain 1 SRIKQDARSVRKYDRIGIFFYSFKSA; chain 2 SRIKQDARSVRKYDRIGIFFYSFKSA; Peptide with targeting and/or antimicrobial activity)")
"S. pneumoniae (M)"
